Tested on: A549/ATCC NSCLC
Assay: NCI-60 one-dose screen, 48 h
Conditions: 10 µM unless noted
Description: Growth inhibition of the A549/ATCC human Non-Small Cell Lung tumor cell line is measured as a screen for anti-cancer activity. Cells are grown in 96 well plates and exposed to the test compound for 48 hours. Compounds are tested at a single concentration, which is 10^-5 M for most compounds. The reported endpoint is percent growth (GI% or GIPRCNT), where numbers from 0 - 100% represent growth inhibition, and numbers from -100% - 0 represent cell death. […]
Compounds without any hit were thinned out: in the full panel of roughly 83,000, 20% have a hit. The source made the active and inactive calls. The calls were made as follows: active = growth percent below 10; inactive = the rest.
Response enum: True for active, False for inactive

smiles-string | category
Cc1ccc(NC(=O)c2cc(-c3nc4ccccc4s3)c(=O)n(NS(=O)(=O)c3ccc(Cl)cc3)c2N)cc1 | False
O=C(/C(=C/c1ccc([N+](=O)[O-])cc1)SCc1ccc(F)cc1)c1ccc(F)cc1 | False
CCN(CC)c1ccc(/C=N/NC(=O)CSc2nc3ccccc3c(=O)n2CCc2ccc(S(N)(=O)=O)cc2)c(O)c1 | False
Brc1ccc2[nH]cc(-c3cncn3CCc3ccccc3)c2c1 | False
CCN(c1ccccc1)S(=O)(=O)c1cc([N+](=O)[O-])ccc1Cl | False
C=C(C)[C@@H]1CC[C@]2(C(=O)N[C@@H](Cc3ccccc3)C(=O)OC)CC[C@]3(C)[C@H](CC[C@@H]4[C@@]5(C)CCC(=O)C(C)(C)[C@@H]5CC[C@]43C)[C@@H]12 | False
O=C(Cn1c[n+](CC(=O)c2ccc([N+](=O)[O-])cc2)c2ccccc21)Nc1cccc2cccnc12 | False

Here is another compound to look at.
Call for entry `CCCCCOc1ccc(/C=N/Nc2cc(C)nc3ccc(Cl)cc23)cc1` :
True
